Assay: HILIC, Waters ACQUITY UPLC BEH Amide, 150 × 2.1 mm, 1.7 µm, 40 °C, 0.5 mL/min, estimated dead time 0.66 min; A: 5% water + 95% acetonitrile; B: 70% water + 30% acetonitrile + 10 mM ammonium formate, pH 6.5; gradient (min/%B) 0/0 2/0 20/70 23/70 24/0 31/0
Settings: stereoisomer not certain
Reported LC retention time values for the following compounds.
reported property: LC retention time (min)

[
  {
    "compound": "NC(=O)c1ccccc1O [SALICYLAMIDE]",
    "measurement unit": "min",
    "readout value": 0.81
  },
  {
    "compound": "O=C(O)c1ccc(=O)[nH]c1 [6-HYDROXYNICOTINATE]",
    "measurement unit": "min",
    "readout value": 5.68
  },
  {
    "compound": "Nc1nc2c(ncn2C2OC(CO)C(O)C2O)c(=O)[nH]1 (stereo unspecified) [GUANOSINE]",
    "measurement unit": "min",
    "readout value": 7.3
  },
  {
    "compound": "NC(N)=S [THIOUREA]",
    "measurement unit": "min",
    "readout value": 1.17
  },
  {
    "compound": "CNC(CC(=O)O)C(=O)O (stereo unspecified) [N-METHYLASPARTATE]",
    "measurement unit": "min",
    "readout value": 11.6
  },
  {
    "compound": "O=CCc1c[nH]c2ccccc12 [INDOLEACETALDEHYDE]",
    "measurement unit": "min",
    "readout value": 1.02
  }
]

----------
Assay: RP, Phenomenex Kinetex C18, 150 × 2.1 mm, 1.7 µm, 30 °C, 0.3 mL/min, estimated dead time 1.1 min; A: water + 0.1% formic acid, pH 3; B: acetonitrile + 0.1% formic acid, pH 3; gradient (min/%B) 0/2 14/100 17/100 17.1/2 25/2
Settings: stereoisomer not certain
Listed next: entries and their corresponding LC retention time.
reported property: LC retention time (min)

[
  {
    "molecule": "CC(=O)NCCCC(=O)[O-] [4-ACETAMIDOBUTANOATE]",
    "readout value": 2.62
  },
  {
    "molecule": "CC1NC(=O)NC1CCCCCC(=O)O (stereo not given) [DETHIOBIOTIN]",
    "readout value": 5.37
  },
  {
    "molecule": "O=c1ccn(C2CC(O)C(CO)O2)c(=O)[nH]1 (stereo not given) [DEOXYURIDINE]",
    "readout value": 2.63
  },
  {
    "molecule": "CSCC1OC(n2cnc3c(N)ncnc32)C(O)C1O (stereo not given) [METHYLTHIOADENOSINE]",
    "readout value": 4.07
  },
  {
    "molecule": "O=C1CCC(C(=O)O)N1 (stereo not given) [PYROGLUTAMATE]",
    "readout value": 1.71
  },
  {
    "molecule": "COC(=O)Cc1c[nH]c2ccccc12 [INDOLE-3-METHYL ACETATE]",
    "readout value": 8.33
  },
  {
    "molecule": "CC1NCCc2cc(O)c(O)cc21 (stereo not given) [SALSOLINOL]",
    "readout value": 2.16
  },
  {
    "molecule": "O=C(O)c1ccc([O-])c(O)c1 [3,4-DIHYDROXYBENZOATE]",
    "readout value": 3.88
  },
  {
    "molecule": "O=C([O-])c1c[nH]c(=O)[nH]c1=O [URACIL 5-CARBOXYLATE]",
    "readout value": 1.93
  },
  {
    "molecule": "CC(CCC(=O)O)C1CCC2C3CCC4CC(O)CCC4(C)C3CC(O)C12C (stereo not given) [DEOXYCHOLATE]",
    "readout value": 10.8
  },
  {
    "molecule": "O=C(O)c1ccnc2ccccc12 [4-QUINOLINECARBOXYLATE]",
    "readout value": 2.5
  },
  {
    "molecule": "O=CCc1ccccc1 [PHENYLACETALDEHYDE]",
    "readout value": 9.47
  },
  {
    "molecule": "Nc1nc2c(ncn2C2OC(CO)C(O)C2O)c(=O)[nH]1 (stereo not given) [GUANOSINE]",
    "readout value": 2.8
  },
  {
    "molecule": "CC(CCC(=O)O)C1CCC2C3C(O)CC4CC(O)CCC4(C)C3CC(O)C12C (stereo not given) [CHOLATE]",
    "readout value": 9.11
  },
  {
    "molecule": "O=c1[nH]c(=O)c2[nH]cnc2[nH]1 [XANTHINE]",
    "readout value": 2.05
  },
  {
    "molecule": "CC(C)=CCNc1ncnc2nc[nH]c12 [N6-(DELTA2-ISOPENTENYL)-ADENINE]",
    "readout value": 5.14
  },
  {
    "molecule": "Cc1cn(C2CC(O)C(CO)O2)c(=O)[nH]c1=O (stereo not given) [THYMIDINE]",
    "readout value": 3.34
  },
  {
    "molecule": "Nc1ccc(C(=O)[O-])cc1 [4-AMINOBENZOATE]",
    "readout value": 3.83
  },
  {
    "molecule": "Cc1cc2nc3c(=O)[nH]c(=O)nc-3n(CC(O)C(O)C(O)COP(=O)(O)OP(=O)(O)OCC3OC(n4cnc5c(N)ncnc54)C(O)C3O)c2cc1C (stereo not given) [FAD]",
    "readout value": 4.21
  },
  {
    "molecule": "O=C(O)c1cc(=O)c2cccc(O)c2[nH]1 [XANTHURENATE]",
    "readout value": 4.12
  }
]

----------
Experiment: RP, Phenomenex Kinetex C18, 150 × 2.1 mm, 1.7 µm, 30 °C, 0.3 mL/min, estimated dead time 1.1 min; A: water + 0.1% formic acid, pH 3; B: acetonitrile + 0.1% formic acid, pH 3; gradient (min/%B) 0/2 14/100 17/100 17.1/2 25/2
Details: stereoisomer not certain
LC retention time values by entry
reported property: LC retention time (min)

[
  {
    "compound": "Nc1nc2c(ncn2C2OC3COP(=O)(O)OC3C2O)c(=O)[nH]1 (stereo not given) [CYCLIC GMP]",
    "reported property": "LC retention time",
    "measurement unit": "min",
    "readout value": 2.8
  },
  {
    "compound": "CC(=O)OCC(=O)C1CCC2C3CCC4=CC(=O)CCC4(C)C3CCC12C (stereo not given) [DEOXYCORTICOSTERONE ACETATE]",
    "reported property": "LC retention time",
    "measurement unit": "min",
    "readout value": 11
  },
  {
    "compound": "O=c1[nH]cnc2nc[nH]c12 [HYPOXANTHINE]",
    "reported property": "LC retention time",
    "measurement unit": "min",
    "readout value": 1.76
  },
  {
    "compound": "O=C(O)c1ccc([O-])cc1 [4-HYDROXYBENZOATE]",
    "reported property": "LC retention time",
    "measurement unit": "min",
    "readout value": 4.66
  },
  {
    "compound": "OCCc1c[nH]c2ccccc12 [INDOLE-3-ETHANOL]",
    "reported property": "LC retention time",
    "measurement unit": "min",
    "readout value": 6.56
  },
  {
    "compound": "Cn1c(=O)c2c(ncn2C)n(C)c1=O [CAFFEINE]",
    "reported property": "LC retention time",
    "measurement unit": "min",
    "readout value": 4.68
  },
  {
    "compound": "Cc1ncc(CO)c(C(=O)O)c1O [4-PYRIDOXATE]",
    "reported property": "LC retention time",
    "measurement unit": "min",
    "readout value": 2.83
  },
  {
    "compound": "CC(=O)N1CCCC1C(=O)O (stereo not given) [N-ACETYLPROLINE]",
    "reported property": "LC retention time",
    "measurement unit": "min",
    "readout value": 3.52
  },
  {
    "compound": "CCCCCCCCCCCCCCCC(=O)O [PALMITATE]",
    "reported property": "LC retention time",
    "measurement unit": "min",
    "readout value": 11.8
  },
  {
    "compound": "NC(Cc1c[nH]c2ccc(O)cc12)C(=O)O (stereo not given) [5-HYDROXYTRYPTOPHAN]",
    "reported property": "LC retention time",
    "measurement unit": "min",
    "readout value": 3.05
  }
]

----------
A collection of molecules and their measured LC retention time
Test: RP, Phenomenex Kinetex C18, 150 × 2.1 mm, 1.7 µm, 30 °C, 0.3 mL/min, estimated dead time 1.1 min; A: water + 0.1% formic acid, pH 3; B: acetonitrile + 0.1% formic acid, pH 3; gradient (min/%B) 0/2 14/100 17/100 17.1/2 25/2
Conditions: stereoisomer not certain
reported property: LC retention time (min)

[
  {
    "molecule": "O=c1[nH]c(=O)c2nccnc2[nH]1 [2,4-DIHYDROXYPTERIDINE]",
    "measurement unit": "min",
    "readout value": 2.49
  },
  {
    "molecule": "Nc1nc2ncc(CNc3ccc(C(=O)NC(CCC(=O)O)C(=O)O)cc3)nc2c(=O)[nH]1 (centres undefined) [FOLATE]",
    "measurement unit": "min",
    "readout value": 4.35
  },
  {
    "molecule": "NC(=O)c1ccccc1O [SALICYLAMIDE]",
    "measurement unit": "min",
    "readout value": 5.42
  },
  {
    "molecule": "O=c1[nH]cnc2c1ncn2C1OC(CO)C(O)C1O (centres undefined) [INOSINE]",
    "measurement unit": "min",
    "readout value": 2.79
  },
  {
    "molecule": "CCCCCC=CCC=CCC=CCCCCC(=O)[O-] [GAMMA-LINOLENATE]",
    "measurement unit": "min",
    "readout value": 11.8
  },
  {
    "molecule": "O=c1ccn(C2OC(CO)C(O)C2O)c(=O)[nH]1 (centres undefined) [URIDINE]",
    "measurement unit": "min",
    "readout value": 2.06
  },
  {
    "molecule": "N[C@@H](Cc1cc(I)c(O)c(I)c1)C(=O)O [3,5-DIIODO-L-TYROSINE]",
    "measurement unit": "min",
    "readout value": 4.95
  },
  {
    "molecule": "O=c1[nH]c(=O)c2ncn(C3OC(CO)C(O)C3O)c2[nH]1 (centres undefined) [XANTHOSINE]",
    "measurement unit": "min",
    "readout value": 3.11
  },
  {
    "molecule": "CC(CCC(=O)O)C1CCC2C3C(O)CC4CC(O)CCC4(C)C3CCC12C (centres undefined) [CHENODEOXYCHOLATE]",
    "measurement unit": "min",
    "readout value": 10.8
  }
]
